# experiment.description: amyloid nucleation score (Sup35N fusion, yeast selection) (log enrichment); library NNK3; higher = more nucleation; inactive = no reads after selection;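 note: zero at mode of non-aggregating sequences after 7 days selection at 30°C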
endpoint.name: amyloid nucleation score

{"substance": "IRTQYQEREASILYM", "result": "inactive"}
{"substance": "AVDLNVTLQWVCSRGRRWVF", "result": 0.051}
{"substance": "GPSSMINNVDLSCFSF", "result": "inactive"}
{"substance": "ERFYTLVI", "result": "inactive"}
{"substance": "CFTDSFINTLCVFNIDPGFP", "result": 2.46}
{"substance": "FINMKIKQTYMRVFFWICAV", "result": "inactive"}
{"substance": "YSTCDLGLHIGAQQERYGLG", "result": 0.253}
{"substance": "LTVRKSY", "result": "inactive"}
{"substance": "VCMFEFMDKFWNFVVTAEQC", "result": "inactive"}
{"substance": "FMKSMVLYPDTVLFYFCLLH", "result": "inactive"}
{"substance": "ILPGRHCGGASMHTQTCQ", "result": "inactive"}
{"substance": "YPPTGMIWIRILVSV", "result": "inactive"}
{"substance": "WLSRLVGFALSTKLGP", "result": "inactive"}
{"substance": "LALFVSCICVIVSELFFTMN", "result": "inactive"}
{"substance": "SLNRWLSKYYLHTA", "result": "inactive"}
{"substance": "HLRLYCHPMNFRWHRRYYEP", "result": 0.249}
{"substance": "GQNSRPGLANTLLYPEVLIR", "result": "inactive"}
{"substance": "SLYGKDYTKTVFSDAVFVCF", "result": "inactive"}
{"substance": "LYFCKNKYTCWSACVNSGFN", "result": "inactive"}
{"substance": "ILFLSLRSYSLNGFSDIMYY", "result": "inactive"}
{"substance": "YRLCLDSCIKIYLQGWVYVY", "result": "inactive"}
{"substance": "GTNWCGIFLNFLLFVML", "result": "inactive"}
{"substance": "AYGRVTMCIGWKDPYGRCL", "result": 0.638}
{"substance": "WFSYQFV", "result": "inactive"}
{"substance": "YICLYHLLVWWDRQFRGFNS", "result": "inactive"}
